- System: Mus musculus
- ASSAY_EXPLANATION: Anticonvulsant activity in CF1 mouse assessed as protection against 32 mA-current- for 3 secs induced seizure at 100 mg/kg, ip after 0.5 hr by 6Hz psychomotor seizure test
- Assay type: functional
- PROTOCOL_CONDITIONS: route intraperitoneal
Property: Activity; scope: individual molecules
Response body: numeric value in %, unit text excluded.

SMILES_STRUCTURE | UOM | Activity
Cc1ccc(Oc2ccc(/C=N/n3c(C)nc4ccccc4c3=O)cc2)cc1 | % | 75
CCCc1nc2ccccc2c(=O)n1/N=C/c1ccc(Oc2ccc(C)cc2)cc1 | % | 50
Cc1cc(Oc2ccc(/C=N/n3c(-c4ccccc4)nc4ccccc4c3=O)cc2)ccc1Cl | % | 100

Switching to the query record.
Name the reported Activity value associated with the molecule CCCc1nc2ccccc2c(=O)n1/N=C1/C(=O)Nc2ccccc21 50
